- method notes: Metabolic stability in mouse liver microsomes assessed as half life at 10 uM
- Type: ADME, Microsome
The following compounds are listed with their measured half-life at 10 µM values.

Example results:
# smiles string, half-life at 10 µM
records = [
    ("C[C@H](CCC(N)=O)[C@H]1CC[C@H]2[C@@H]3[C@H](O)C[C@@H]4CC5(CC[C@]4(C)[C@H]3C[C@H](O)[C@]12C)OOC(C)(C)OO5", "> 1 h"),
    ("CC(=O)O[C@H]1C[C@H]2[C@@H]([C@H](OC(C)=O)C[C@@H]3CC4(CC[C@@]32C)OOC(C)(C)OO4)[C@@H]2CC[C@H]([C@H](C)CCC(=O)O)[C@@]12C", "> 1 h"),
    ("CCCNC(=O)CC[C@@H](C)[C@H]1CC[C@H]2[C@@H]3[C@H](OC(C)=O)C[C@@H]4CC5(CC[C@]4(C)[C@H]3C[C@H](OC(C)=O)[C@]12C)OOC(C)(C)OO5", "0.417 h"),
]

Ask | # half-life at 10 µM lookup, item CC(=O)O[C@H]1C[C@H]2[C@@H]([C@H](OC(C)=O)C[C@@H]3CC4(CC[C@@]32C)OOC(C)(C)OO4)[C@@H]2CC[C@H]([C@H](C)CCC(=O)NCCN(C)C)[C@@]12C
Reply | > 1 h

Numbers sourced from ChEMBL document CHEMBL1157528.
